As shown below, each of these compounds has a reported MIC value.
# Tested on: Streptococcus pneumoniae
# Protocol Text: Antibacterial activity against MLSB-resistant Streptococcus pneumoniae 07P390 harboring ermB gene assessed as reduction in microbial growth
# Type: functional

{"Compound String": "CC[C@H]1OC(=O)[C@H](C)[C@@H](OC(=O)Cc2ccccn2)[C@H](C)[C@@H](O[C@@H]2O[C@H](C)C[C@H](N(C)C)[C@H]2O)[C@](C)(OC(=O)CCNCCCCc2cnc3ccccc3c2)C[C@@H](C)CN(C)[C@H](C)[C@@H](O)[C@]1(C)O", "Study System": "Streptococcus pneumoniae", "MIC": "8 µg/mL"}
{"Compound String": "CC[C@H]1OC(=O)[C@H](C)[C@@H](OC(=O)Cc2ccccn2)[C@H](C)[C@@H](O[C@@H]2O[C@H](C)C[C@H](N(C)C)[C@H]2O)[C@](C)(OC(=O)CCNCCC#Cc2ccc3ncccc3c2)C[C@@H](C)CN(C)[C@H](C)[C@@H](O)[C@]1(C)O", "Study System": "Streptococcus pneumoniae", "MIC": "32 µg/mL"}
{"Compound String": "CC[C@H]1OC(=O)[C@H](C)[C@@H](OC(=O)Cc2cccnc2)[C@H](C)[C@@H](O[C@@H]2O[C@H](C)C[C@H](N(C)C)[C@H]2O)[C@](C)(OC(=O)CCNCCC#Cc2ccc3c(c2)c(=O)c(C(N)=O)cn3C2CC2)C[C@@H](C)CN(C)[C@H](C)[C@H]2OC(=O)O[C@@]21C", "Study System": "Streptococcus pneumoniae", "MIC": "64 µg/mL"}
{"Compound String": "CC[C@H]1OC(=O)[C@H](C)[C@@H](OC(=O)Cc2ccccn2)[C@H](C)[C@@H](O[C@@H]2O[C@H](C)C[C@H](N(C)C)[C@H]2O)[C@](C)(OC(=O)CCNCCCc2cnc3ccccc3c2)C[C@@H](C)CN(C)[C@H](C)[C@@H](O)[C@]1(C)O", "Study System": "Streptococcus pneumoniae", "MIC": "2 µg/mL"}

====

# Tested on: Streptococcus pneumoniae
# Protocol Text: Antibacterial activity against MLSB-resistant Streptococcus pneumoniae 07P390 harboring ermB gene assessed as reduction in microbial growth
# Type: functional
As shown below, each of these compounds has a reported MIC value.

{"Compound String": "CC[C@H]1OC(=O)[C@H](C)[C@@H](OC(=O)Cc2ccccn2)[C@H](C)[C@@H](O[C@@H]2O[C@H](C)C[C@H](N(C)C)[C@H]2O)[C@](C)(OC(=O)CCNCCC#Cc2ccc3c(c2)c(=O)c(C(N)=O)cn3C2CC2)C[C@@H](C)CN(C)[C@H](C)[C@H]2OC(=O)O[C@@]21C", "Study System": "Streptococcus pneumoniae", "MIC [µg/mL]": 64}
{"Compound String": "CC[C@H]1OC(=O)[C@H](C)[C@@H](OC(=O)Cc2ccccn2)[C@H](C)[C@@H](O[C@@H]2O[C@H](C)C[C@H](N(C)C)[C@H]2O)[C@](C)(OC(=O)CCNCCC#Cc2ccc3[nH]ccc(=O)c3c2)C[C@@H](C)CN(C)[C@H](C)[C@@H](O)[C@]1(C)O", "Study System": "Streptococcus pneumoniae", "MIC [µg/mL]": 256}

====

# System: Staphylococcus aureus
# Protocol Text: Ratio of MBC to MIC against MLSB/methicillin-resistant Staphylococcus aureus 15B196
# Assay type: functional

{"Molecule": "CC[C@H]1OC(=O)[C@H](C)[C@@H](OC(=O)Cc2ccccn2)[C@H](C)[C@@H](O[C@@H]2O[C@H](C)C[C@H](N(C)C)[C@H]2O)[C@](C)(OC(=O)CCN2CCN(c3cc4c(cc3F)c(=O)c(C(N)=O)cn4C3CC3)CC2)C[C@@H](C)CN(C)[C@H](C)[C@H]2OC(=O)O[C@@]21C", "Comparison Sign": ">", "Ratio": 8}
{"Molecule": "CC[C@H]1OC(=O)[C@H](C)[C@@H](OC(=O)Cc2ccccn2)[C@H](C)[C@@H](O[C@@H]2O[C@H](C)C[C@H](N(C)C)[C@H]2O)[C@](C)(OC(=O)CCNCC/C=C/c2cnc3ccccc3c2)C[C@@H](C)CN(C)[C@H](C)[C@@H](O)[C@]1(C)O", "Comparison Sign": ">", "Ratio": 4}
{"Molecule": "CC[C@H]1OC(=O)[C@H](C)[C@@H](OC(=O)Cc2ccccn2)[C@H](C)[C@@H](O[C@@H]2O[C@H](C)C[C@H](N(C)C)[C@H]2O)[C@](C)(OC(=O)CCN2CCN(c3cc4c(cc3F)c(=O)c(C(=O)O)cn4C3CC3)CC2)C[C@@H](C)CN(C)[C@H](C)[C@@H](O)[C@]1(C)O", "Comparison Sign": "=", "Ratio": 8}
{"Molecule": "CC[C@H]1OC(=O)[C@H](C)[C@@H](OC(=O)Cc2ccccn2)[C@H](C)[C@@H](O[C@@H]2O[C@H](C)C[C@H](N(C)C)[C@H]2O)[C@](C)(OC(=O)CCN2CCN(c3c(F)cc4c(=O)c(C(N)=O)cn(C5CC5)c4c3OC)CC2C)C[C@@H](C)CN(C)[C@H](C)[C@@H](O)[C@]1(C)O (some centres undefined)", "Comparison Sign": "=", "Ratio": 1}

Cited source for all entries: ChEMBL document CHEMBL4680236
